Exercise: state measured MIC for each of the molecules provided.
test system: Mycobacterium tuberculosis; experiment: Antimycobacterial activity against multidrug-resistant Mycobacterium tuberculosis 7106 harboring rpoB S531L/katG S315T mutation after 7 days by resazurin microtitre plate assay; assay type: functional
The number alone won't do; follow it with the unit.

Illustrative cases are given below, each with its answer.
Cc1cnc(CCNC(=O)c2ccc([N+](=O)[O-])o2)n1C1CCC1 | 12.5 µg/mL
Cc1cnc(-c2ccccc2)n1CC1CCN(C(=O)c2ccc([N+](=O)[O-])o2)C1 (stereo not given) | 6.2 µg/mL
Cc1cnc(C)n1C1CCN(C(=O)c2ccc([N+](=O)[O-])o2)C1 (stereo not given) | 12.5 µg/mL
Cc1cnc(CC2CCN(C(=O)c3ccc([N+](=O)[O-])o3)C2)n1CC1CC1 (stereo not given) | 12.5 µg/mL

Now look at this entry.
Task: Provide MIC, system Mycobacterium tuberculosis, entry CCCn1c(C)cnc1C1CN(C(=O)c2ccc([N+](=O)[O-])o2)C1
Output: 3.1 µg/mL
